- TGT: Marinobacter sp. msLacBP6 variant Y187C (187C), SEQ ID NO: 38, Acrylodan conjugate
- MEASUREMENT_NOTES: Fluorescence titration of conjugate
- Type: binding
- MEASUREMENT_CONTEXT: read-out: trueKd (lactate); λ1 452, λ2 482 nm as printed in Table 5
MEASURED_METRIC: Kd (µM)
Numbers only, in µM.

Which Kd value belongs to C[C@H](O)C(=O)O [lactate] ? 300

###

- TGT: Marinobacter sp. msLacBP6 variant V192C, SEQ ID NO: 40, Acrylodan conjugate
- MEASUREMENT_NOTES: Fluorescence titration of conjugate
- MEASUREMENT_CONTEXT: read-out: trueKd (lactate); monochromatic, 500 nm
MEASURED_METRIC: pKd
Give bare numbers, as −log10 of the molar value.

Which pKd value belongs to C[C@H](O)C(=O)O [lactate] ? 4.70
